All values here come from PubChem BioAssay.

Listing: composite z-score of selected compounds
molecular target: Calmodulin-1 (Homo sapiens) (UniProt P0DP23); assay: small molecules binding calmodulin-1 with EGTA – biochemical, small-molecule microarray, Cy5-labelled CALM1, profiling panel (AID 1111); details: Cy5-CALM1 binding fluorescence, higher = more signal;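 note: labelled calmodulin applied in Tris saline Tween buffer holding calcium plus EGTA and DTT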
Could you keep your reply to the number by itself?

Compound: COC(=O)C(CC#Cc1ccc2c(c1)[C@]1(C(=O)N2)[C@H](c2ccccc2OCCO)N2[C@H](c3ccccc3)[C@H](c3ccccc3)OC(=O)[C@H]2[C@@H]1C(=O)N1CCc2cc(OC)c(OC)cc2C1)C(=O)OC
Target of assay: Calmodulin-1 (Homo sapiens) (UniProt P0DP23)
composite z-score: 0.0823

Compound: C=C(COC)/C(=C/C[C@@H](OC(C)=O)c1ccccc1OCCO)c1cnc2ccccc2c1
Target of assay: Calmodulin-1 (Homo sapiens) (UniProt P0DP23)
composite z-score: 0.35

Compound: O=C1C2C=CC(C(O)c3ccc([N+](=O)[O-])cc3)N(Nc3ccccc3F)C2C(=O)N1c1ccccc1 (configuration not stated)
Target of assay: Calmodulin-1 (Homo sapiens) (UniProt P0DP23)
composite z-score: 0.865

Compound: CCCC#C[Si](O[C@H](CC)c1cn(Cc2ccccc2)nn1)(C(C)C)C(C)C
Target of assay: Calmodulin-1 (Homo sapiens) (UniProt P0DP23)
composite z-score: -0.0722

Compound: COC(=O)[C@@]1(Cc2ccccc2)[C@H]2c3cc(C(=O)N(C)C)n(Cc4ccc(S(C)(=O)=O)cc4)c3C[C@H]2CN1C(=O)c1ccccc1
Target of assay: Calmodulin-1 (Homo sapiens) (UniProt P0DP23)
composite z-score: 1.69

Req: I'm curious: which composite z-score was measured for COc1ccc(C(=O)Nc2ccc(CN3C(=O)[C@@]4(O[C@@H](CCn5cc(CCO)nn5)[C@H]([Si](C)(C)c5ccc(OC)cc5)[C@H]4C)c4ccccc43)cc2)cc1 tested on Calmodulin-1 (Homo sapiens) (UniProt P0DP23)?
Resp: -0.0429

Req: I'm curious: which composite z-score was measured for O=C1O[C@@H](c2ccccc2)[C@@H](c2ccccc2)N2[C@@H](c3ccc(OCCO)cc3)[C@]3(C(=O)Nc4ccc(C#CCCO)cc43)[C@@H](C(=O)O)[C@H]12 tested on Calmodulin-1 (Homo sapiens) (UniProt P0DP23)?
Resp: 2.03

----------
molecular target: Neurogenic locus notch homolog protein 3 (Homo sapiens); test: small molecules binding NOTCH3 protein – biochemical, 635/667 nm fluorescence, primary screen (AID 1096); conditions: small-molecule microarray, 635 nm fluorescence, higher = more signal
Readout name: composite z-score
Could you keep your reply to the number by itself?

# count of solved cases: 2
Molecule: C=CCOC(=O)[C@@H]1[C@H]2C(=O)O[C@H](c3ccccc3)[C@H](c3ccccc3)N2[C@H](c2ccc(OCCOC(=O)[C@H]3C[C@H]4C(=O)N[C@@H](CCCCN(C)C)C(=O)N4[C@H]3c3ccc(O)cc3)cc2)[C@@]12C(=O)Nc1ccc(I)cc12
composite z-score: 1.1
--
Molecule: C=C(CCCC)/C(=C/C[C@H](OC(=O)c1ccncc1)c1cccc(OCCO)c1)c1cnc2ccccc2c1
composite z-score: 1.13

Note: attention shifts to another entry.
Req: I'm curious: which composite z-score was measured for CN1C(=O)C2C(C1=O)C1C=C(CCCO)C2C(C2CC2)N1Cc1cccc(OC(F)(F)F)c1 (stereo not drawn) tested on Neurogenic locus notch homolog protein 3 (Homo sapiens)?
Resp: 0.203
